Experiment Description: Acute toxicity in mice
Measurement Context: in vivo, po; mouse, os; read-out: DL50 (the source's name)
Excerpt: Acute toxicity tests have been carried out in mice rats, by administering the compound of the invention by oral and intraperitoneal route.
Parameter: LD50

Quote LD50 reported for COc1ccccc1OC1(C)OC(=O)c2ccccc2O1 (stereo not shown) [MR 693] please.
> 3000 mg/kg
